TESTED SYSTEM: Golgi-associated PDZ and coiled-coil motif-containing protein (Homo sapiens)
EXPERIMENT SUMMARY: disruption of CAL PDZ-reporter peptide interaction – biochemical, fluorescence polarization, Cer-tagged CAL PDZ, HTS, primary screen (AID 504414);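 note: plate controls were DMSO neutral control wells for no effect and unlabeled competitor peptide control wells for full effect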
SETUP CONDITIONS: purified CAL PDZ, TMR-peptide fluorescence polarization, 1 h; at 20 µM; stronger effect = higher value
About 55 (0.02%) of roughly 330,000 compounds were called active. The sample holds actives, similar compounds and a random draw of the others, so the mix is not that of the screen.
QUANTITY KIND: inhibition (%)

# COMPOUND, RECORDED RESULT
records = [
    ("CC(=O)c1c(C)[nH]c(C(=O)Nc2cc(S(=O)(=O)N(C)C)ccc2C)c1C", -0.89),
    ("COCCN(C(=S)Nc1ccccc1OC)C1CCN(C(C)C)CC1", 61.8),
    ("CCOc1cc(CNCCN(C)C)c(Cl)cc1OCC(=O)NCCc1ccccc1", -2.91),
    ("CCn1c(SCCC(C)C)nnc1-c1c[nH]c2ccccc12", 0.439),
    ("O=C1CSc2ccc(S(=O)(=O)NCc3ccccc3)cc2N1", -0.383),
    ("COc1ccccc1CNC(=O)CNC(=O)c1cn(-c2ccccc2OC)c(=O)c2ccccc12", -0.592),
    ("CC(C)(C)NC(=O)CN(C(=O)c1csnn1)c1ccccc1-c1ccccc1", -2.13),
    ("CC(C)=CCCC1(C)C=Cc2c(ccc3c2[nH]c2cc(O)c(C)cc23)O1 (configuration not stated)", 0.0711),
    ("CCOc1cc(C(=O)N(Cc2ccccc2)c2ccc(C)cc2)ccc1OCC(=O)N1CCOCC1", -0.206),
    ("Clc1cc(-c2ccc(/C=N/n3cnnc3)o2)ccc1Br", -4.91),
    ("CN(C)S(=O)(=O)Oc1ccccc1C(=O)Nc1ccccc1Cl", -2.53),
    ("CCN(CC)C(=O)CS(=O)CC(=O)Nc1cc(OCCOC)c(Cl)cc1Cl (configuration not stated)", -0.37),
    ("O=C(OCC(=O)N1CCCCCC1)c1ccc(Br)c(S(=O)(=O)N2CCOCC2)c1", 0.404),
    ("O=C(COc1coc(CN2CCN(c3ccccc3)CC2)cc1=O)N1CCc2ccccc21", -0.986),
    ("Cc1ccc(C(=O)NN(CCC#N)C2=NS(=O)(=O)c3ccccc32)cc1", -0.552),
    ("O=c1c2ccccc2cnn1Cc1n[nH]c(=S)n1-c1ccccc1F", 0.871),
    ("Cc1cc(C)n(CC(C)NCc2c(C(=O)N3CCOCC3)nc3c(C)cccn23)n1 (configuration not stated)", 0.659),
    ("Cc1ccc(S(=O)(=O)N(CC(O)CN2C(=O)NC(C)(C)C2=O)c2cccc([N+](=O)[O-])c2)cc1 (configuration not stated)", -1.82),
    ("Cc1cc(-c2csc(N)n2)c(C)n1-c1ccccc1", -2.46),
    ("O=C(NNS(=O)(=O)c1ccc(F)cc1)c1cnccn1", -2.25),
    ("COc1ccccc1C(=O)Nc1ccc(OCC(=O)N2CCCCC2)cc1", -1.71),
    ("CCOC(=O)N1CCN(S(=O)(=O)N2CCCC(C(=O)NCCCN3CCC(C)CC3)C2)CC1 (configuration not stated)", -1.6),
    ("COc1c(C)cc(C(=O)C2CCCN(S(=O)(=O)c3c(C)noc3C)C2)cc1C (configuration not stated)", -2.46),
    ("CCOCCCN(C)C1CCN(C(=O)c2oc3ccccc3c2NC(=O)Cc2cccc([N+](=O)[O-])c2)CC1", -0.742),
    ("CC(=O)C1=C(C)NC2=C(C(=O)CC(C)(C)C2)C1C (configuration not stated)", -0.554),
    ("Cc1ccccc1N1C(=O)C2ON(c3ccccc3)C(c3ccncc3)C2C1=O (configuration not stated)", -1.2),
    ("Cc1ccccc1CNC(=O)CCC(=O)N1Cc2ccccc2Oc2ncccc21", -3.11),
    ("CCOC(=O)C1Cn2c(nc3c(c2=O)C(C)(CC)Cc2ccccc2-3)S1 (configuration not stated)", -2.98),
    ("CCCCn1c(N)c(N(CCOC)C(=O)c2oc3ccc(OC)cc3c2C)c(=O)[nH]c1=O", -1.98),
    ("CCOC(=O)C(C)n1cnc2scc(-c3ccc(C)c(C)c3)c2c1=O (configuration not stated)", -1.15),
    ("O=C1COc2c1ccc(O)c2O", -0.377),
    ("CCOc1ncccc1C(=O)N(CC)CC(=O)Nc1ccc(NC(C)=O)cc1", -1.13),
    ("CC(C)CCN1CCN=C1N(C)C", -2.49),
    ("CN(CCc1cn[nH]c1)C(=O)CC1C(=O)NCCN1Cc1cccc(Oc2ccccc2)c1 (configuration not stated)", 0.0148),
    ("CCCCC(CC)CNCc1cccn1CCN1CCOCC1 (configuration not stated)", 0.235),
    ("Cc1sc2ncn(CC(=O)NCCN(C)C)c(=O)c2c1S(=O)(=O)N1CCC(C)CC1", -1.98),
    ("O=C(NCCCN1CCCC1=O)c1cccc(S(=O)(=O)NCc2ccccc2)c1", -2.23),
    ("Cn1cc(CCC(=O)N2CCCC(C(=O)c3ccc(C(C)(C)C)cc3)C2)cn1 (configuration not stated)", -1.53),
    ("Cc1cc(C)c(C#N)c(Nc2cccc(Br)c2)n1", -0.811),
    ("O=C(Nc1ccc2c(c1)nc1n2CCCCC1)c1cc(S(=O)(=O)N2CCOCC2)ccc1Cl", -2.81),
    ("CC(=O)c1ccc(NC(=O)C(C)OC(=O)c2ccc(NS(=O)(=O)c3ccc4[nH]c(=O)[nH]c4c3)cc2)cc1 (configuration not stated)", 1.56),
    ("CC(C)NC(=O)Nc1cccc2c1O[C@H](CN(C)S(=O)(=O)c1cccs1)[C@@H](C)CN([C@H](C)CO)C2=O", -1.8),
]

* * *

TESTED SYSTEM: Golgi-associated PDZ and coiled-coil motif-containing protein (Homo sapiens) (UniProt Q9HD26)
EXPERIMENT SUMMARY: disruption of CAL PDZ-reporter peptide interaction – biochemical, fluorescence polarization, Cer-tagged CAL PDZ, HTS, primary screen (AID 504414);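 note: plate controls were DMSO neutral control wells for no effect and unlabeled competitor peptide control wells for full effect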
SETUP CONDITIONS: purified CAL PDZ, TMR-peptide fluorescence polarization, 1 h; at 20 µM
Among all 330,000 compounds or so, about 55 (0.02%) were called active.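 Rule for the calls: active = highest replicate inhibition of at least 40%; inactive = the rest.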 The sample holds actives, similar compounds and a random draw of the others, so the mix is not that of the screen.
Possible outcomes: 1 = active, -1 = inactive

# MOLECULE, GROUP
records = [
    ("Cc1cccc(-n2nc3c(c2NC(=O)c2cc4ccccc4o2)CS(=O)(=O)C3)c1", -1),
    ("CSCCNC(=O)c1ccc2nc(Cc3ccccc3F)oc2c1", -1),
    ("C[C@@H]1C(c2ccc(F)cc2)=NN(c2ccc(Br)cc2)[C@H]1C(=O)N1CCOC1=O", -1),
    ("COc1ccc(-n2nc(C(=O)NCC(=O)N3CCC(C(N)=O)CC3)c3ccccc3c2=O)cc1OC", -1),
    ("Cc1nc(CN(C)C(=O)CC2C(=O)NCCN2Cc2ccc(F)cc2)cs1 (centres undefined)", -1),
    ("COc1ccc(-c2cc(C(=O)N(C)CC(=O)Nc3ccccc3Cl)c3ccccc3n2)cc1OC", -1),
    ("CCc1ccc(C(=O)C(C)OC(=O)CN2C(=O)NC3(CCCC3)C2=O)cc1 (centres undefined)", -1),
    ("CC(=O)Nc1ccc(-c2cn3cccnc3n2)cc1", -1),
    ("Cc1ccc2cc(C)c(N3CCC(C)CC3)nc2c1", -1),
    ("CCn1nc(C(=O)Nc2ccc(N3CCOCC3)cc2)c2ccccc2c1=O", -1),
    ("COc1ccccc1C(=O)COC(=O)CNS(=O)(=O)c1ccc(NC(C)=O)cc1", -1),
    ("CCN(C(=O)Cc1nc(N)n[nH]1)C1(C(=O)Nc2ccccc2)CCCCC1", -1),
    ("COc1ccccc1N(CC(=O)Nc1c(C)n(C)n(-c2ccccc2)c1=O)S(=O)(=O)c1ccccc1", -1),
    ("Cc1ccccc1/[N+]([O-])=C/c1ccncc1", -1),
    ("Cc1c(C(=O)N2CCCC2)c(S(=O)(=O)NCC(C)c2ccccc2)c(C)n1C (centres undefined)", -1),
    ("CCCc1nc2scc(-c3ccc(C)cc3)c2c(=O)n1N", -1),
    ("COC(=O)c1sc(C(F)(F)F)c(-c2ccccc2)c1S(=O)(=O)N(C)C", -1),
    ("CC1CCCCC1NC(=O)CCS(=O)(=O)c1ccc2c(c1)NC(=O)CO2 (centres undefined)", -1),
    ("CCCCCC(=O)Nc1ccc(-c2cn3cccnc3n2)cc1", 1),
    ("CC(NCCc1ccc(S(N)(=O)=O)cc1)C(=O)NCc1ccccc1 (centres undefined)", -1),
    ("COc1cc(C2C3C(=O)N(c4ccccc4)C(=O)C3ON2c2ccccc2)ccc1O (centres undefined)", -1),
    ("O=S(=O)(c1ccc(Cl)cc1)N1CCCN(c2ccc(C(F)(F)F)cn2)CC1", -1),
    ("CC(=O)c1nc(N2C(=O)C3CC=C(C)CC3C2=O)sc1C (centres undefined)", -1),
    ("Cc1cccc(C(=O)OCC(=O)NC(C)C2CC3CCC2C3)c1O (centres undefined)", -1),
    ("Cc1onc(-c2c(F)cccc2Cl)c1C(=O)OCC(=O)N1C(C)CCCC1C (centres undefined)", -1),
    ("CC(C)c1cc(N=O)cc(C(C)C)c1O", -1),
    ("O=C(O)c1ccc(-n2nc(-c3ccccc3)c3ccccc3c2=O)cc1", -1),
    ("CCOC(=O)c1nc(-c2ccc3c(c2)OCO3)[nH]c1C", -1),
    ("Cc1ccn2c(c1)nc(=O)c1cc(S(=O)(=O)N3CCC(C)CC3)ccc12", -1),
    ("O=C(/C=C/Nc1ccc(S(=O)(=O)Nc2cnc3ccccc3n2)cc1)c1cccnc1", -1),
    ("COC(=O)c1cc(C(=O)N(Cc2ccccc2)c2ccccn2)cc([N+](=O)[O-])c1", -1),
    ("O=C(Cc1ccc(NC(=O)C2CCCN(C(=O)CCc3ccccc3)C2)cc1)Nc1ccc(C(=O)N2CCOCC2)cc1 (centres undefined)", -1),
    ("COc1ccccc1-n1ccnc(SCC(=O)NC2CCCCC2)c1=O", -1),
    ("O=S(=O)(NC1CCCCC1N1CCC(O)CC1)c1ccc(Cl)cc1 (centres undefined)", -1),
    ("CCc1ccc(OCC(=O)OC(C)C(=O)NC2CC2)cc1 (centres undefined)", -1),
    ("C=CCOC(=O)N1CCC2CC1c1cc(-c3ccc(OC)cc3)ccc12 (centres undefined)", -1),
    ("Cc1ccnc(NC(=O)C2CCN(S(=O)(=O)c3c(C)c(C)cc(C)c3C)CC2)c1", -1),
    ("COC(=O)c1sc(N2CCN(Cc3ccccc3)CC2)nc1N", -1),
    ("CC(C)(C)C(=O)N(Cc1ccccc1)c1ccccn1", -1),
    ("O=C(CCl)NNc1cccc(Cl)n1", -1),
    ("O=C(Nc1ccc(F)c([N+](=O)[O-])c1)C1CCCO1 (centres undefined)", -1),
    ("CCC1([N+](=O)[O-])COC(c2ccc(C)cc2)OC1 (centres undefined)", -1),
    ("O=C(Nc1ccc(C2CC2(Cl)Cl)cc1)c1cccc([N+](=O)[O-])c1 (centres undefined)", -1),
    ("C#CCN1CC(C)/C(=N/O)CC1C (centres undefined)", -1),
]

Hello, the source for this data is PubChem BioAssay AID504414, in case you need it.
